Test system: CRL-7250
experimental.details: Cytotoxic Profiling of Annotated Libraries Using Quantitative High-Throughput Screening (AID 1296008); further: on the % scale 0 is the no-effect control and ±100 the full control effect; nearly all actives have a fitted effect of over 60% in size
details: Five cell lines viability, CellTiter-Glo ATP luminescence, 48-72 h; hits give low values
Experimental: Cell-based phenotypic screening is a commonly used approach to discover biological pathways, novel drug targets, chemical probes and high-quality hit-to-lead molecules. […] A pintool (Kalypsys) was used to transfer 23 nL of compound solution to the 1536-well assay plates. […] Plates were left at room temperature for 10 min before imaging the ATP-coupled luminescence using a ViewLux microplate imager (PerkinElmer, Waltham, MA).
Records with an inconclusive call do not appear. Active and inactive are the calls of the source. The call rests on the fitted dose curve; in most records, active means well fitted inhibition curve with a large enough effect; inconclusive means small, poorly fitted or top-dose-only effect; inactive means flat fitted curve, though single readings scatter.
metric.name: max response

Query: Assign max response to the following record: C=C(CO)C12OC1C1(C)C(=CC2=O)C(O)C(O)CC1C (configuration not stated)
Response: -0.172% (inactive)

Query: Assign max response to the following record: CC1(C)CC[C@]2(C(=O)O)CC[C@]3(C)C(=CCC4[C@@]5(C)CC[C@H](O[C@@H]6O[C@H](C(=O)O)[C@@H](O[C@@H]7OC[C@@H](O)[C@H](O)[C@H]7O)[C@H](O)[C@H]6O)C(C)(C)C5CC[C@]43C)C2C1O (some centres not stated)
Response: 4.1% (inactive)

Query: Assign max response to the following record: C=CC(C)(O)CC[C@H]1C(=C)CCC2[C@](C)(C(=O)O)CCC[C@@]21C (some centres not stated)
Response: 2.31% (inactive)

Query: Assign max response to the following record: CC1=CC(=O)C2C(C)(C)CCC[C@]2(C)[C@H]1CO (some centres not stated)
Response: -14.4% (inactive)

Query: Assign max response to the following record: C=CC(C)(O)CC/C=C(\C)C(=O)OC1C(O)C(CO)OC(OC(=O)C23CCC(C)(C)CC2C2=CCC4C5(C)CCC(OC6OC(COC7OCC(OC(C)=O)C(O)C7OC7OC(COC(C)=O)C(O)C(O)C7O)C(O)C(O)C6O)C(C)(C)C5CCC4(C)C2(C)C(O)C3O)C1OC1OCC(OC2OCC(O)C(OC3OCC(O)C(O)C3O)C2O)C(O)C1O (configuration not stated)
Response: -9.65% (inactive)

Query: Assign max response to the following record: `C=CC[C@]12C[C@@H](OC)C(=O)C(OC)=C1O[C@@H](c1cc(OC)c3c(c1)OCO3)[C@@H]2C`
Response: 4.3% (inactive)

Query: Assign max response to the following record: `C=C1CCC[C@]2(C)CC[C@@H](C(=C)C(=O)O)[C@H](O)[C@@H]12`
Response: -0.497% (inactive)

----------
System: NIH3T3
experimental.details: Cytotoxic Profiling of Annotated Libraries Using Quantitative High-Throughput Screening (AID 1296008); further: on the % scale 0 is the no-effect control and ±100 the full control effect; nearly all actives have a fitted effect of over 60% in size
details: Five cell lines viability, CellTiter-Glo ATP luminescence, 48-72 h; hits give low values
Results filed as inconclusive are left out.
Can you tell me max response for the items I'm about to list?
Your answer is read as %, so omit the unit and give the number.

Query: Assign max response to the following record: `COc1ccc(-c2cnc3ccc(NCc4ccc(S(N)(=O)=O)cc4)nn23)cc1OC`
Response: -14

Query: Assign max response to the following record: `CC(=O)O[C@H]1C[C@@]2(C)[C@@H](CC[C@H]3[C@@]4(C)C=CC(=O)[C@@H](C)[C@@H]4[C@H](O)C(=O)[C@@]32C)/C1=C(/CCC=C(C)C)C(=O)O`
Response: -3.01

Query: Assign max response to the following record: `O=C1C=CC(O)(/C=C/C(=O)OC[C@H]2O[C@@H](Oc3ccc(O)cc3)[C@H](O)[C@@H](O)[C@@H]2O)C=C1`
Response: -0.599

Query: Assign max response to the following record: CC1=CCC(C(C)(C)O[C@@H]2O[C@H](CO[C@@H]3O[C@@H](C)[C@H](O)[C@@H](O)[C@H]3O)[C@@H](O)[C@H](O)[C@H]2O)CC1 (stereo partly specified)
Response: 2.56

Query: Assign max response to the following record: CC(C)CC1NC(=O)C2CC3(O)c4ccccc4NC3N2C1=O (stereo unspecified)
Response: -1.31

Query: Assign max response to the following record: `COC(=O)CCc1cc2ccoc2c(OC)c1O[C@@H]1O[C@H](CO)[C@@H](O)[C@H](O)[C@H]1O`
Response: 0.737

Query: Assign max response to the following record: `O=C(OC[C@@]1(O)CO[C@@H](O[C@H]2[C@H](Oc3ccc(O)cc3)O[C@H](CO)[C@@H](O)[C@@H]2O)[C@@H]1O)c1ccc(O)cc1`
Response: -2.03

Query: Assign max response to the following record: CC(C)(O)CC(CO)NC(=O)CC(O)CC(=O)Cc1ccccc1 (stereo unspecified)
Response: 2.22

Query: Assign max response to the following record: `Cc1ccc(NC(=O)C(=O)NC2CC(C)(C)NC(C)(C)C2)cc1`
Response: -7

Query: Assign max response to the following record: COc1ccc(C(O)C(C)OC2OC(CO)C(O)C(O)C2O)cc1 (stereo unspecified)
Response: -2.23

Query: Assign max response to the following record: CC1=CC(=O)C2C(C)(C)CCC[C@]2(C)[C@H]1CO (stereo partly specified)
Response: 2

Query: Assign max response to the following record: C[C@H]1CC[C@@]2(OC1)O[C@H]1CC3C4CC[C@H]5C[C@@H](O)[C@H](O)C[C@]5(C)C4=CC(=O)[C@]3(C)[C@H]1[C@@H]2C (stereo partly specified)
Response: -10.8

Query: Assign max response to the following record: C/C=C/C=C/[C@@H]1O[C@](O)([C@H](CC)C(=O)NC/C=C/C=C(\C)[C@@H](OC)[C@@H](C)C2OC(/C=C/C=C/C=C(\C)C(=O)c3c(O)cc[nH]c3=O)[C@H](O)[C@@H]2O)[C@H](O)[C@H](O)C1(C)C (stereo partly specified)
Response: -4.29

Query: Assign max response to the following record: CC1(C)CC[C@]2(C(=O)O[C@@H]3O[C@H](CO)[C@@H](O)[C@H](O)[C@H]3O)CC[C@]3(C)C(=CCC4[C@@]5(C)C[C@@H](O)[C@H](O)C(C)(C)C5CC[C@]43C)C2[C@@H]1O (stereo partly specified)
Response: -3.15

Query: Assign max response to the following record: `O=C(Nc1ccc(S(=O)(=O)Nc2nccs2)cc1)C(c1ccccc1)c1ccccc1`
Response: 3.11

Query: Assign max response to the following record: C=C1CCC2C(C)(C)CCC[C@]2(C)[C@H]1C/C=C(\CO)C(=O)C(=O)O (stereo partly specified)
Response: -2.57
